# Tested on: Trichophyton rubrum
# Procedure text: Antifungal activity against Trichophyton rubrum IFO 9185 after 48 to 72 hrs at 28 degC by serial 2-fold dilution method
# Format: functional
Property: MIC

// worked examples, MIC included
C=C1CCC[C@@]23Oc4ccc(O)cc4C[C@]2(C)[C@@H](C)CC[C@@]13C
> 128 µg/mL
C[C@@H]1[C@H](O)[C@@H](C)/C=C/C=C/C=C/C=C/C=C/C=C/C=C/[C@H](O[C@@H]2O[C@H](C)[C@@H](O)[C@H](N)[C@@H]2O)C[C@@H]2O[C@](O)(C[C@@H](O)C[C@@H](O)[C@H](O)CC[C@@H](O)C[C@@H](O)CC(=O)O[C@H]1C)C[C@H](O)[C@H]2C(=O)O [AMPHOTERICIN B]
1 µg/mL
C=C1CCC[C@@]23C4=C(C[C@]2(C)[C@@H](C)CC[C@@]13C)C(=O)C=C(NCCS(=O)(=O)O)C4=O
> 128 µg/mL
C=C1CCC[C@H]2[C@](C)(CC3=CC(=O)C=C(NCCS(=O)(=O)O)C3=O)[C@@H](C)CC[C@@]12C
> 128 µg/mL
C=C1CCC[C@H]2[C@](C)(CC3=CC(=O)C=C(N(C)CCS(=O)(=O)O)C3=O)[C@@H](C)CC[C@@]12C
> 128 µg/mL

Hey, can you go through the list below and give me MIC for every item?
1. C=C1CCC[C@@]23C4=C(C[C@]2(C)[C@@H](C)CC[C@@]13C)C(=O)C=C(NC)C4=O
2. C=C1CCC[C@H]2[C@](C)(Cc3cc(O)ccc3O)[C@@H](C)CC[C@@]12C [ARENAROL]
3. C=C1CCC[C@@]23C4=C(C[C@]2(C)[C@@H](C)CC[C@@]13C)C(=O)C(OC)=CC4=O

Result:
1. > 128 µg/mL
2. 4 µg/mL
3. > 128 µg/mL

====

Sequence of the target: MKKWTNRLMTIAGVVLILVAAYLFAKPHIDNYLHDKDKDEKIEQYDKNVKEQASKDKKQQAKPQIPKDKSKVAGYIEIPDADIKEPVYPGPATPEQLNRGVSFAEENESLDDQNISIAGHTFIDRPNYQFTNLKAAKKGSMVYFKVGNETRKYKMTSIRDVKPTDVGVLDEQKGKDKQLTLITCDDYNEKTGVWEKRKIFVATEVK
So I've got a bunch of compounds here, and I need their pIC50 values.
Answers are plain numbers, as −log10 of the molar value.

C=C1CCC[C@H]2[C@](C)(CC3=CC(=O)C=C(NCCS(=O)(=O)O)C3=O)[C@@H](C)CC[C@@]12C
3.57

Ask: Given COc1ccc2cc3[n+](cc2c1OC)CCc1cc2c(cc1-3)OCO2 [BERBERINE CHLORIDE] , state its recorded pIC50.
Result: 3.96

====

For each record, write down the corresponding pIC50.
# Test system: A549
# Procedure text: Cytotoxicity against human A549 cells assessed as reduction in cell viability after 72 hrs by MTT assay
# Type: functional, cell-based
# Applied conditions: A549, 72 h
Numbers only, as −log10 of the molar value.

Could I get pIC50 for every one of these entries?
1. C=C1CCC[C@@]23C4=C(C[C@]2(C)[C@@H](C)CC[C@@]13C)C(=O)C(OC)=CC4=O
2. C=C1CCC[C@H]2[C@](C)(Cc3cc(O)ccc3O)[C@@H](C)CC[C@@]12C [ARENAROL]
3. C=C1CCC[C@@]23C4=C(C[C@]2(C)[C@@H](C)CC[C@@]13C)C(=O)C=C(NC)C4=O

Result:
1: 5.48; 2: 5.43; 3: 5.31

====

# Target or system: Sodium/potassium-transporting ATPase
# Procedure text: Inhibition of Na+/K+ -ATPase in human intrauterine growth restriction placental membrane using 3-O-methylfluorescein phosphate by fluorometric method in presence of Kcl
Exercise: for every item that follows, state its recorded IC50.
Answers are plain numbers, in µM.

// known answers, use as guide
C=C1CCC[C@@]23C4=C(C[C@]2(C)[C@@H](C)CC[C@@]13C)C(=O)C=C(NCCS(=O)(=O)O)C4=O
285
C=C1CCC[C@H]2[C@](C)(CC3=CC(=O)C=C(N(C)CCS(=O)(=O)O)C3=O)[C@@H](C)CC[C@@]12C
94.5
C=C1CCC[C@H]2[C@](C)(CC3=CC(=O)C=C(NCCS(=O)(=O)O)C3=O)[C@@H](C)CC[C@@]12C
82.2
C=C1CCC[C@H]2[C@](C)(Cc3cc(O)ccc3O)[C@@H](C)CC[C@@]12C [ARENAROL]
11.4

// next item, IC50 requested
Ask: Please state recorded IC50 (tested on Sodium/potassium-transporting ATPase) of C=C1CCC[C@@]23Oc4ccc(O)cc4C[C@]2(C)[C@@H](C)CC[C@@]13C
Result: 69.1

====

# Test system: Bacillus subtilis
# Procedure text: Antibacterial activity against Bacillus subtilis ATCC 6633 after 24 hrs at 37 degC by broth dilution method
# Type: functional
# Applied conditions: ATCC 6633, 24 h
For each entry below, report its MIC value.
Give bare numbers, in µg/mL.

C=C1CCC[C@H]2[C@](C)(CC3=CC(=O)C=C(N(C)CCS(=O)(=O)O)C3=O)[C@@H](C)CC[C@@]12C
64

# input for lookup
Ask: Tell me reported MIC for C=C1CCC[C@H]2[C@](C)(CC3=CC(=O)C=C(NCCS(=O)(=O)O)C3=O)[C@@H](C)CC[C@@]12C , tested with Bacillus subtilis.
Result: 32

====

Task for the reader: assign each of the following molecules its reported MIC.
# System: Bacillus subtilis
# Procedure text: Antibacterial activity against Bacillus subtilis ATCC 6633 after 24 hrs at 37 degC by broth dilution method
# Format: functional
# Applied conditions: ATCC 6633, 24 h

Consider the reported MIC for these molecules:
C=C1CCC[C@H]2[C@](C)(Cc3cc(O)ccc3O)[C@@H](C)CC[C@@]12C [ARENAROL]
4 µg/mL
CC1(C)S[C@@H]2[C@H](NC(=O)[C@H](N)c3ccccc3)C(=O)N2[C@H]1C(=O)O [AMPICILLIN]
< 0.06 µg/mL
C=C1CCC[C@@]23C4=C(C[C@]2(C)[C@@H](C)CC[C@@]13C)C(=O)C(OC)=CC4=O
16 µg/mL

Ask: What does the record list as MIC for C=C1CCC[C@@]23Oc4ccc(O)cc4C[C@]2(C)[C@@H](C)CC[C@@]13C ?
Result: 1 µg/mL

====

Kindly supply the reported pIC50 values for the records listed here.
# Tested on: A549
# Procedure text: Cytotoxicity against human A549 cells assessed as reduction in cell viability after 72 hrs by MTT assay
# Format: functional, cell-based
# Applied conditions: A549, 72 h
Answers are plain numbers, as −log10 of the molar value.

C=C1CCC[C@H]2[C@](C)(CC3=CC(=O)C=C(NCCS(=O)(=O)O)C3=O)[C@@H](C)CC[C@@]12C
5.38
C=C1CCC[C@@]23Oc4ccc(O)cc4C[C@]2(C)[C@@H](C)CC[C@@]13C
5.23

For each entry beneath this line, provide reported pIC50.
1. C=C1CCC[C@@]23C4=C(C[C@]2(C)[C@@H](C)CC[C@@]13C)C(=O)C=C(NCCS(=O)(=O)O)C4=O
2. C=C1CCC[C@H]2[C@](C)(CC3=CC(=O)C=C(N(C)CCS(=O)(=O)O)C3=O)[C@@H](C)CC[C@@]12C

Result:
[5.64, 5.21]

====

# Test system: Aspergillus fumigatus
# Procedure text: Antifungal activity against Aspergillus fumigatus HIC 6094 after 48 to 72 hrs at 28 degC by serial 2-fold dilution method
# Type: functional
Property: MIC

A selection of reference data follows.
C=C1CCC[C@@]23Oc4ccc(O)cc4C[C@]2(C)[C@@H](C)CC[C@@]13C
> 128 µg/mL
C=C1CCC[C@@]23C4=C(C[C@]2(C)[C@@H](C)CC[C@@]13C)C(=O)C=C(NCCS(=O)(=O)O)C4=O
> 128 µg/mL
C[C@@H]1[C@H](O)[C@@H](C)/C=C/C=C/C=C/C=C/C=C/C=C/C=C/[C@H](O[C@@H]2O[C@H](C)[C@@H](O)[C@H](N)[C@@H]2O)C[C@@H]2O[C@](O)(C[C@@H](O)C[C@@H](O)[C@H](O)CC[C@@H](O)C[C@@H](O)CC(=O)O[C@H]1C)C[C@H](O)[C@H]2C(=O)O
8 µg/mL

Ask: Query for Aspergillus fumigatus: what MIC does the record show for C=C1CCC[C@H]2[C@](C)(CC3=CC(=O)C=C(NCCS(=O)(=O)O)C3=O)[C@@H](C)CC[C@@]12C ?
Result: > 128 µg/mL

====

# Target or system: Sortase A (Staphylococcus aureus, UniProt Q9S446)
# Sequence (Q9S446 whole entry): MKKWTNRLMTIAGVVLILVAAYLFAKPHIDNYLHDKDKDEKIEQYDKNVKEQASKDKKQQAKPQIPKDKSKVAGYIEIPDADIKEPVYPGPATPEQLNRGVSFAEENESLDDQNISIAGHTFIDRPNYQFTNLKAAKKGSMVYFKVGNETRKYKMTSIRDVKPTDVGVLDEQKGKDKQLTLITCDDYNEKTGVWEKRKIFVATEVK
pIC50: −log10 of the molar value.
I'd appreciate it if you could supply pIC50 values for the items below.

Hey, can you go through the list below and give me pIC50 for every item?
1. C=C1CCC[C@@]23C4=C(C[C@]2(C)[C@@H](C)CC[C@@]13C)C(=O)C=C(NC)C4=O
2. C=C1CCC[C@H]2[C@](C)(CC3=CC(=O)C=C(N(C)CCS(=O)(=O)O)C3=O)[C@@H](C)CC[C@@]12C
3. C=C1CCC[C@@]23Oc4ccc(O)cc4C[C@]2(C)[C@@H](C)CC[C@@]13C

Result:
["< 3.42", "< 3.55", "< 3.39"]
